pEC50 listing for selected molecules.
- Test system: Chikungunya virus
- assay remarks: Antiviral activity against Chikungunya virus Indian Ocean strain 899 infected in African green monkey Vero cells assessed as protection against virus-induced cytopathic effect after 5 days by MTS assay
- Format: functional, organism-based
- settings: Indian Ocean strain 899, Vero, 120 h
pEC50: −log10 of the molar value.

compound structure	pEC50
CO[C@]12Oc3c(cc4c(c3C)C(=O)C(=O)c3cc(C)c(O)cc3-4)O[C@H]1c1c(cc(O)c3cc(C)c(O)cc13)C(C)(C)C2=O	< 3.76
COc1cc2c(C)c3c(cc2c2cc(O)c(C)cc12)O[C@H]1c2c(cc(O)c4cc(C)c(O)cc24)C(C)(C)C(=O)[C@@]1(OC)O3	< 4.07
Cn1c(=O)c2c(c3ccccc31)OC(C)(C)[C@H]1CC[C@@](C)(O)[C@H](Cl)[C@H]21	< 3.56
CC(=O)OCn1c(=O)c2c(c3ccccc31)OC(C)(C)[C@H]1CC[C@@](C)(O)[C@H](Cl)[C@H]21	< 3.62

Query: pEC50; subject: `C=C(C)[C@@]12OC3(c4ccccc4)O[C@@]4([C@H]([C@H]1O)[C@@H]1O[C@]1(CO)[C@@H](O)[C@@]1(O)[C@H]4C[C@H](C)[C@@H]1OC(=O)c1ccccc1)[C@](C)(O3)[C@@H]2OC(=O)c1ccccc1`
Reply: 5.36

Query: pEC50; subject: `COc1cc2c(C)c3c(cc2c2cc(O)c(C)cc12)O[C@H]1c2c(cc(O)c4cc(C)c(O)cc24)C(C)(C)C(=O)[C@]1(OC)O3`
Reply: < 3.76

Query: pEC50; subject: `CC1(C)Oc2c(c(=O)[nH]c3ccccc23)[C@H]2[C@@H](Cl)[C@](C)(O)CC[C@@H]21`
Reply: < 3.54

Query: pEC50; subject: `C=C(C)[C@@]12OC3(c4ccccc4)O[C@@H]1[C@@H]1[C@@H]4O[C@]4(CO)[C@@H](O)[C@@]4(O)[C@@H](C[C@H](C)[C@@H]4OC(=O)c4ccccc4)[C@@]1(O3)[C@](C)(O)[C@@H]2OC(=O)c1ccccc1`
Reply: 5.00

Query: pEC50; subject: `Cn1c2c(c(=O)c3ccccc31)[C@H]1[C@@H](Cl)[C@](C)(O)CC[C@@H]1C(C)(C)O2`
Reply: < 3.56

====

- assay remarks: Selectivity index, ratio of CC50 for African green monkey Vero cells to EC50 for Chikungunya virus Indian Ocean strain 899 infected in African green monkey Vero cells
- Type: toxicity
- settings: read-out: Ratio CC50/EC50
measured endpoint: selectivity ratio

compound structure	selectivity ratio
C=C(C)[C@@]12OC3(c4ccccc4)O[C@@H]1[C@@H]1[C@@H]4O[C@]4(CO)[C@@H](O)[C@@]4(O)[C@@H](C[C@H](C)[C@@H]4OC(=O)c4ccccc4)[C@@]1(O3)[C@](C)(O)[C@@H]2OC(=O)c1ccccc1	5

Query: selectivity ratio; subject: `C=C(C)[C@@]12OC3(c4ccccc4)O[C@@]4([C@H]([C@H]1O)[C@@H]1O[C@]1(CO)[C@@H](O)[C@@]1(O)[C@H]4C[C@H](C)[C@@H]1OC(=O)c1ccccc1)[C@](C)(O3)[C@@H]2OC(=O)c1ccccc1`
Reply: 11

====

- assay remarks: Cytotoxicity against African green monkey Vero cells by MTS assay
- Type: cell-based
- settings: chlorocebus sabaeus
measured endpoint: CC50

Query: CC50; subject: `COc1cc2c(C)c3c(cc2c2cc(O)c(C)cc12)O[C@H]1c2c(cc(O)c4cc(C)c(O)cc24)C(C)(C)C(=O)[C@@]1(OC)O3`
Reply: > 172 µM

Query: CC50; subject: `C=C(C)[C@@]12OC3(c4ccccc4)O[C@@H]1[C@@H]1[C@@H]4O[C@]4(CO)[C@@H](O)[C@@]4(O)[C@@H](C[C@H](C)[C@@H]4OC(=O)c4ccccc4)[C@@]1(O3)[C@](C)(O)[C@@H]2OC(=O)c1ccccc1`
Reply: 52 µM

====

- assay remarks: Cytotoxicity against African green monkey Vero cells by MTS assay
- Assay type: cell-based
- settings: chlorocebus sabaeus
measured endpoint: CC50

Here's what some known entries look like.
compound structure	CC50
CO[C@]12Oc3c(cc4c(c3C)C(=O)C(=O)c3cc(C)c(O)cc3-4)O[C@H]1c1c(cc(O)c3cc(C)c(O)cc13)C(C)(C)C2=O	> 172 µM
Cn1c(=O)c2c(c3ccccc31)OC(C)(C)[C@H]1CC[C@@](C)(O)[C@H](Cl)[C@H]21	> 208 µM
COc1cc2c(C)c3c(cc2c2cc(O)c(C)cc12)O[C@H]1c2c(cc(O)c4cc(C)c(O)cc24)C(C)(C)C(=O)[C@]1(OC)O3	> 129 µM

# ---- query compound ----
Query: CC50; subject: `CC1(C)Oc2c(c(=O)[nH]c3ccccc23)[C@H]2[C@@H](Cl)[C@](C)(O)CC[C@@H]21`
Reply: > 288 µM
